measured.on: CYP2C8 (Homo sapiens, UniProt P10632)
Sequence (P10632 whole entry): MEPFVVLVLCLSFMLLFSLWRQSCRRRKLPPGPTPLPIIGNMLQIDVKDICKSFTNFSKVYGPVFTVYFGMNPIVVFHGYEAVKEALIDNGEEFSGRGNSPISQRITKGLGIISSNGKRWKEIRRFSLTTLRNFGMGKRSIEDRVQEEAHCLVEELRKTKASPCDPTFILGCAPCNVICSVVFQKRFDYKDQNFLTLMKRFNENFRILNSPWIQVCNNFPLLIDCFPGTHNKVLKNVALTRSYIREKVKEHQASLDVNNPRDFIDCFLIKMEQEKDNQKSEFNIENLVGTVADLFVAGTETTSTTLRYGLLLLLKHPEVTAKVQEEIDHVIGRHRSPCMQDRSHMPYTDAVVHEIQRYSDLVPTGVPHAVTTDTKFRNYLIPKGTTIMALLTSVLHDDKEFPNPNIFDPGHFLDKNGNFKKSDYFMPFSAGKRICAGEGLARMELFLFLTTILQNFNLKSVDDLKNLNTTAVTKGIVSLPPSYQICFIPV
test.details: Time dependent inhibition of CYP2C8 activity in human hepatocytes after 30 mins by liquid chromatography/tandem mass spectroscopy
Type: ADME, cell-based, Hepatocyte
assay.metric: inhibition at 0.5 h

What does the data say about its inhibition at 0.5 h? Entry: CC(C)c1cc2c(c(O)c1O)[C@@]1(C(=O)O)CCCC(C)(C)[C@@H]1CC2
< 11%

====

System: CYP3A4
test.details: Induction of CYP3A4 mRNA expression in human hepatocytes at 10 uM after 48 hrs relative to untreated control
Format: ADME, cell-based, Hepatocyte
assay.setup: read-out: FC
assay.metric: fold induction at 48 h, 10 µM
// response body must contain only the number

Recorded fold induction at 48 h, 10 µM of CC(C)c1cc2c(c(O)c1O)[C@@]1(C(=O)O)CCCC(C)(C)[C@@H]1CC2 , please.
13.9

====

measured.on: CYP3A4 (Homo sapiens)
Sequence (P08684 whole entry): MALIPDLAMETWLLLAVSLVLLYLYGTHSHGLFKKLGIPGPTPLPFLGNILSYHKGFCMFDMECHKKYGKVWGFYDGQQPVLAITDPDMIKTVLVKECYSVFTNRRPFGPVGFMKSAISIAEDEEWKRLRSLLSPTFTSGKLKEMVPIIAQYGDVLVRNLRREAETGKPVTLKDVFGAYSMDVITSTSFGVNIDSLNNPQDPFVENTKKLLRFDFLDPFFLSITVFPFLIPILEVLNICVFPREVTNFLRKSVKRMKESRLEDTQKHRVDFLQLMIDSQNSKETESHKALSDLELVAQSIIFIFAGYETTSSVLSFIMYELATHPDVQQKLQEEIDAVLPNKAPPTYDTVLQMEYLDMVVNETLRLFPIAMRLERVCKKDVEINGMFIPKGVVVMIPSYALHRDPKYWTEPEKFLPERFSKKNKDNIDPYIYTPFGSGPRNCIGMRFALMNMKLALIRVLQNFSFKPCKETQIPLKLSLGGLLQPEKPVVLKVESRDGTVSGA
test.details: Time dependent inhibition of CYP3A4 activity in human hepatocytes after 30 mins by liquid chromatography/tandem mass spectroscopy
Assay type: ADME, cell-based, Hepatocyte
assay.metric: inhibition at 0.5 h

Notebook entry, CYP3A4 (Homo sapiens) assay: inhibition at 0.5 h of CC(C)c1cc2c(c(O)c1O)[C@@]1(C(=O)O)CCCC(C)(C)[C@@H]1CC2 = ?
< 11%
